The reported numbers originate from patent US20250289893A1.

target: chimeric CD1a pool B protein [human CD1a lipid binding domain, mouse CD1d Ig domain] (human; mouse, UniProt P06126 18-201; P11609 205-297, limits assumed); test: ELISA, 3.16 µg/ml antibody
Sequence (P06126 other isoform, or with tags, fused parts or gaps mutant limits assumed): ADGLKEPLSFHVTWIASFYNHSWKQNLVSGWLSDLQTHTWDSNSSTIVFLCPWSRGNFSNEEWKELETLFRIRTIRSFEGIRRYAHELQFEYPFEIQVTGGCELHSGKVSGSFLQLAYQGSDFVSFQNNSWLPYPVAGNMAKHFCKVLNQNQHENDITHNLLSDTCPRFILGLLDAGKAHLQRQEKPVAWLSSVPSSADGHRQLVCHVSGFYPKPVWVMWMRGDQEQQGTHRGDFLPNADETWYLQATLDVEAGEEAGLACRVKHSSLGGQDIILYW
Would you kindly list Optical Density (OD) for each of these binders?
Write the value in OD as a bare number.

Any idea what its Optical Density (OD) is? The binder is 111 (VR12113) (antibody, V domains shown, also called OX111) VH: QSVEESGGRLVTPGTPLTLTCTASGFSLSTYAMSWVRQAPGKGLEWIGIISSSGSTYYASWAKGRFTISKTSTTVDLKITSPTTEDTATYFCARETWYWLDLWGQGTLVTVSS VL: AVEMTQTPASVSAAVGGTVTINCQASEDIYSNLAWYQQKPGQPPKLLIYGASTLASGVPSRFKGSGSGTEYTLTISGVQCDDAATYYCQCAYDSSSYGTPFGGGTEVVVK 1.41

// next record 77A (VR11851) (antibody, V domains shown, also called OX77a; antibody 77a) VH: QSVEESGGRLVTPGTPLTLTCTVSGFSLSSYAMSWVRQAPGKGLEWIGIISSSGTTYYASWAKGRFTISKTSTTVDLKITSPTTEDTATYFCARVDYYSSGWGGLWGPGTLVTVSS VL: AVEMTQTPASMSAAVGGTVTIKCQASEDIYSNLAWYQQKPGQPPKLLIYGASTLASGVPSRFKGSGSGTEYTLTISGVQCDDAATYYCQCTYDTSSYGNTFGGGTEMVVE 1.28

Try this binder too: 116 (VR12117) (antibody, V domains shown, also called OX116) VH: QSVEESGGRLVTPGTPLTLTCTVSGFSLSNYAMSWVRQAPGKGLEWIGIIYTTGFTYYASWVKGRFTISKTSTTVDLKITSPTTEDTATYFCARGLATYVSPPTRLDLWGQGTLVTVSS VL: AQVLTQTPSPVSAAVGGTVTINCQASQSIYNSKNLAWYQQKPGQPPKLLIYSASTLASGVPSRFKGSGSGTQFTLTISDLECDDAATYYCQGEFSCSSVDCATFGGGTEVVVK 1.38

Further, for 110 (VR12112) (antibody, V domains shown, also called OX110; antibody 110) VH: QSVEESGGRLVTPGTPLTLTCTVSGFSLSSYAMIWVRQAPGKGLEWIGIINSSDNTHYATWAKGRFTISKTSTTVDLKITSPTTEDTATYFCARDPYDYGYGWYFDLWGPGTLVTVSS VL: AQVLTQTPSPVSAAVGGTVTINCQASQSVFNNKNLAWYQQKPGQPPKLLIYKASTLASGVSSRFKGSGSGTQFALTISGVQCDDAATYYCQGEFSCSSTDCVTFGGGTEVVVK ? 1.53
